Parameter IC50, tested on Histone deacetylase 1 (Homo sapiens), listed per item.
Sequence (Q13547 whole entry): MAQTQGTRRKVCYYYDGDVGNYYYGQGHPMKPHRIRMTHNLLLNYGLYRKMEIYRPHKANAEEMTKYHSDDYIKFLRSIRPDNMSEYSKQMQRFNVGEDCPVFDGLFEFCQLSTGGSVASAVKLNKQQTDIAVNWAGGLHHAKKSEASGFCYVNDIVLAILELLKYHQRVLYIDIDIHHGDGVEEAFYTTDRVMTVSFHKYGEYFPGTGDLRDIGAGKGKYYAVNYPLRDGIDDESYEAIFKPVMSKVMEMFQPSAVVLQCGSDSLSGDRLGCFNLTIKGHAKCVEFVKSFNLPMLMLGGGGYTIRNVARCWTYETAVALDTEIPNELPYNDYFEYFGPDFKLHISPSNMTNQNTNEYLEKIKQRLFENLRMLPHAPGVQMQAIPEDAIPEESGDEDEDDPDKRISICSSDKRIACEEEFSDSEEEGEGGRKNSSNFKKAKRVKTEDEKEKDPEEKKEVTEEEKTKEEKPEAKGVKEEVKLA
Give the value, in units of µM, as a plain number.

Guide cases for IC50, answers given:
Cc1ccc(-c2cc(C(F)(F)F)nn2-c2ccc(S(=O)(=O)NCCCCCCCC(=O)NO)cc2)cc1
0.968
Cc1ccc(-c2cc(C(F)(F)F)nn2-c2ccc(S(=O)(=O)NCCCCCCC(=O)NO)cc2)cc1
1.03

Please examine the following record next.
Field request: IC50 | item: COc1ccc2c(c1)c(CC(=O)NCCCCCCC(=O)NO)c(C)n2C(=O)c1ccc(Cl)cc1
0.98
